Entries and their measured IC50 follow.
- TARGET OF ASSAY: Human HDAC1 (Homo sapiens, UniProt Q13547)
- Construct: full length with C-terminal His-tag and C-terminal FLAG-tag; His (C); FLAG (C); host or cells: baculovirus expression system
- Sequence (Q13547 whole entry): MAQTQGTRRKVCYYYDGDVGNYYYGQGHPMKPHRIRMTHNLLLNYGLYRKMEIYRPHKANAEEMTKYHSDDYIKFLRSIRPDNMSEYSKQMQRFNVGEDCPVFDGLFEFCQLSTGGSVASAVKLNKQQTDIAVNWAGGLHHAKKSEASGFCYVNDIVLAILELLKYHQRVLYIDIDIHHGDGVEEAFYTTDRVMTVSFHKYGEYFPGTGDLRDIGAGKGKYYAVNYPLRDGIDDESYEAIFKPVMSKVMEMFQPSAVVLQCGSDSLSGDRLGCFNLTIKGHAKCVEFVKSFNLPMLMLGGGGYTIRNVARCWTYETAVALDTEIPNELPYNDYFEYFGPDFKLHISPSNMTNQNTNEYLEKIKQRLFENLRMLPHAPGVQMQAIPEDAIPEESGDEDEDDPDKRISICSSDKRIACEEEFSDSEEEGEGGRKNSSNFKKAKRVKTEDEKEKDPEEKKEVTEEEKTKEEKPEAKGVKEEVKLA
- METHOD NOTES: HDAC1 biochemical assay, AMC-labeled peptide substrate
- PARTICULARS: read-out: HDAC Isoform IC50 (nM) 1
- Description: Activity against all zinc-dependent HDACs 1 to 11 was assessed by using an acetylated AMC-labeled peptide substrate. The substrate RHKK(Ac)AMC was used for HDAC1, HDAC2, HDAC3, HDAC6 and HDAC10; the substrate used for HDAC8 was RHK(Ac)K(Ac)AMC. Activity against the class IIa HDACs (HDAC4, 5, 7, 9) and HDAC11 was determined using a class IIa-specific substrate, BOC-Lys(trifluoroacetyl)-AMC (“Trifluoroacetyl Lysine”; see Lahm et al, 2007, PNAS, 104, 17335-17340). […]

FC(F)(F)c1cnnc(N(Cc2ccc(-c3noc(C(F)(F)F)n3)s2)c2cnccn2)c1 [Example EF]	> 10000 nM
O=C(c1ccc(N(Cc2ccc(-c3noc(C(F)(F)F)n3)s2)c2cnccn2)nn1)N1CCCC1 [Example FI]	≤ 10000 nM
O=C(c1ccc(N(Cc2ccc(-c3noc(C(F)(F)F)n3)s2)c2cnccn2)nn1)N1CC[S+]([O-])CC1 [Example FD]	≤ 10000 nM
Cc1nc(N2CCCC2)cc(N(Cc2ccc(-c3noc(C(F)(F)F)n3)s2)c2cnccn2)n1 [Example CQ]	> 10000 nM
CN(C)c1cc(N(Cc2ccc(-c3noc(C(F)(F)F)n3)s2)c2cnccn2)ncn1 [Example CI]	≤ 10000 nM

Notebook: Cn1ccc2c(N(Cc3ccc(-c4noc(C(F)(F)F)n4)s3)c3cnccn3)ncnc21 [Example CM] , IC50 read as > 10000 nM

Notebook: FC(F)(F)c1cnnc(N(Cc2ccc(-c3noc(C(F)(F)F)n3)s2)c2ccccn2)c1 [Example EG] , IC50 read as > 10000 nM

Notebook: CN(C(=O)c1cnnc(N(Cc2ccc(-c3noc(C(F)(F)F)n3)s2)c2cnccn2)c1)S(C)(=O)=O [Example GE] , IC50 read as > 10000 nM

====

- TARGET OF ASSAY: Human HDAC1 (Homo sapiens, UniProt Q13547)
- Construct: full length with C-terminal His-tag and C-terminal FLAG-tag; His (C); FLAG (C); host or cells: baculovirus expression system
- METHOD NOTES: HDAC1 biochemical assay, AMC-labeled peptide substrate
- PARTICULARS: read-out: HDAC Isoform IC50 (nM) 1
MEASURED ATTRIBUTE: IC50

In the examples that follow, each entry is paired with its recorded IC50.
CC(=O)Nc1cnnc(N(Cc2ccc(-c3noc(C(F)(F)F)n3)s2)c2cnccn2)c1 [Example FM]	≤ 10000 nM
Fc1cc(-c2noc(C(F)(F)F)n2)sc1CN(c1cnccn1)c1cnccn1 [Example EY]	> 10000 nM
FC(F)(F)c1nc(-c2ccc(CN(c3cnccn3)c3cc(N4CCOCC4)ncn3)s2)no1 [Example CL]	> 10000 nM
FC(F)(F)c1ccnc(N(Cc2ccc(-c3noc(C(F)(F)F)n3)s2)c2cnccn2)c1 [Example AI]	> 10000 nM
CC1(c2cnnc(N(Cc3ccc(-c4noc(C(F)(F)F)n4)s3)c3cnccn3)c2)COC1 [Example GT]	> 10000 nM
FC(F)(F)c1nc(-c2ccc(CN(c3cnccn3)c3cc(N4CCOCC4)cnn3)s2)no1 [Example FP]	> 10000 nM
Cc1cncc(N(Cc2ccc(-c3noc(C(F)(F)F)n3)s2)c2cc(C(F)(F)F)cnn2)n1 [Example EM]	> 10000 nM
CN(C)C(=O)c1ccc(N(Cc2ccc(-c3noc(C(F)(F)F)n3)s2)c2cnccn2)nc1 [Example AC]	> 10000 nM
CN1CCN(C(=O)c2cnnc(N(Cc3ccc(-c4noc(C(F)(F)F)n4)s3)c3cnccn3)c2)CC1 [Example EC]	> 10000 nM
O=C(c1ccc(N(Cc2ccc(-c3noc(C(F)(F)F)n3)s2)c2cnccn2)nn1)N1CCOCC1 [Example DS]	> 10000 nM

Notebook: Fc1cnc(N(Cc2ccc(-c3noc(C(F)(F)F)n3)s2)c2cnccn2)nc1 [Example AX] , IC50 read as > 10000 nM

Notebook: Cn1cc(-c2ccc(N(Cc3ccc(-c4noc(C(F)(F)F)n4)s3)c3cnccn3)nn2)cn1 [Example DO] , IC50 read as ≤ 10000 nM

Notebook: CC(C)(O)c1cnnc(N(Cc2ccc(-c3noc(C(F)(F)F)n3)s2)c2cnccn2)c1 [Example GS] , IC50 read as ≤ 10000 nM

Notebook: FC(F)(F)c1cnnc(N(Cc2ccc(-c3noc(C(F)(F)F)n3)s2)c2cccnc2)c1 [Example EI] , IC50 read as > 10000 nM

Notebook: O=C(c1cnnc(N(Cc2ccc(-c3noc(C(F)(F)F)n3)s2)c2cnccn2)c1)N1CC2CCC(C1)O2 [Example GA] , IC50 read as > 10000 nM

Notebook: O=C(c1cnnc(N(Cc2ccc(-c3noc(C(F)(F)F)n3)s2)c2cnccn2)c1)N1CCS(=O)(=O)CC1 [Example ED] , IC50 read as > 10000 nM

====

- TARGET OF ASSAY: Human HDAC7 (Homo sapiens, UniProt Q8WUI4)
- Construct: (a.a. 518-end) with N-terminal GST tag; GST (N); host or cells: baculovirus expression system
- Sequence (Q8WUI4 518-952 limits assumed): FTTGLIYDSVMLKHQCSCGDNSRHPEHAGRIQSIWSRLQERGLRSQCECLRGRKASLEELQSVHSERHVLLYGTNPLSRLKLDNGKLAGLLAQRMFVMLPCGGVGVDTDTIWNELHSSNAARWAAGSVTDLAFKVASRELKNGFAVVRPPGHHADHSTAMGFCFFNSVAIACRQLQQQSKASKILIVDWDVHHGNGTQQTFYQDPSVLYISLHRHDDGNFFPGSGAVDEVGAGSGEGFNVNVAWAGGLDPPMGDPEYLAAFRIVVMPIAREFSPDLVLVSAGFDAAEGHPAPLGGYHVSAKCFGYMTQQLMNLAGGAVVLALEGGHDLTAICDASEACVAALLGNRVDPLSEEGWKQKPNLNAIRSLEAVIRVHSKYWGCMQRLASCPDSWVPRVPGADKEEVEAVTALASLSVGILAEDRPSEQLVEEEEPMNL
- METHOD NOTES: HDAC7 biochemical assay, class IIa-specific substrate
- PARTICULARS: read-out: HDAC Isoform IC50 (nM) 7
MEASURED ATTRIBUTE: IC50

Fc1cnc(N(Cc2ccc(-c3noc(C(F)(F)F)n3)s2)c2cnccn2)nc1	≤ 10000 nM
CS(=O)(=O)c1nccc(N(Cc2ccc(-c3noc(C(F)(F)F)n3)s2)c2cnccn2)n1	≤ 1000 nM
Cc1cnc(N(Cc2ccc(-c3noc(C(F)(F)F)n3)s2)c2cnccn2)nc1	≤ 10000 nM
O=C(O)c1cnnc(N(Cc2sc(-c3noc(C(F)(F)F)n3)cc2F)c2cnccn2)c1	≤ 1000 nM
Cc1ccc(N(Cc2ccc(-c3noc(C(F)(F)F)n3)s2)c2cnccn2)nn1	≤ 10000 nM
FC(F)(F)c1nc(-c2ccc(CN(c3cnccn3)c3nccc4nccnc34)s2)no1	≤ 10000 nM

Now let's try a different one.
Notebook: FC(F)(F)c1nc(-c2ccc(CN(c3cnccn3)c3ccc4ccncc4n3)s2)no1 , IC50 read as ≤ 1000 nM

====

- TARGET OF ASSAY: Human HDAC5 (Homo sapiens)
- Construct: full length with C-terminal His tag, MW=51.1 kDa; His (C); host or cells: baculovirus expression system
- Sequence (Q9UQL6 656-1122 limits assumed): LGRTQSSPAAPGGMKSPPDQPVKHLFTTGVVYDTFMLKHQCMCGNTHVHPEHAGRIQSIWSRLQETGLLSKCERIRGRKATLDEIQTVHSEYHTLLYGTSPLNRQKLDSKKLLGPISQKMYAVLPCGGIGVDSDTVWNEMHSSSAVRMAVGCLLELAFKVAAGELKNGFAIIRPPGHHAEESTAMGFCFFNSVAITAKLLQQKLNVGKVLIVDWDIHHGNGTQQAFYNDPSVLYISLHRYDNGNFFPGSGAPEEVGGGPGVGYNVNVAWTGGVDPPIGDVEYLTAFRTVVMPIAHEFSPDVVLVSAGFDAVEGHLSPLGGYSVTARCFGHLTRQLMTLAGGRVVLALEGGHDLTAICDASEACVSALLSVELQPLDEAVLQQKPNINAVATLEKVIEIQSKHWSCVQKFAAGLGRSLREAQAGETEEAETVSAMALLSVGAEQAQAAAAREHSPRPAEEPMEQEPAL
- METHOD NOTES: HDAC5 biochemical assay, class IIa-specific substrate
- PARTICULARS: read-out: HDAC Isoform IC50 (nM) 5
Entries and their measured IC50 follow.

In the examples that follow, each entry is paired with its recorded IC50.
FC(F)(F)c1cnnc(N(Cc2ccc(-c3noc(C(F)(F)F)n3)s2)c2ccc(N3CCCC3)nn2)c1	≤ 10000 nM
FC(F)(F)c1cnnc(N(Cc2ccc(-c3noc(C(F)(F)F)n3)s2)c2ccccn2)c1	≤ 10000 nM
COc1cncc(N(Cc2ccc(-c3noc(C(F)(F)F)n3)s2)c2cnccn2)n1	≤ 1000 nM

Now let's try a different one.
Notebook: O=C(O)c1cnnc(N(Cc2sc(-c3noc(C(F)(F)F)n3)cc2F)c2cnccn2)c1 , IC50 read as ≤ 1000 nM

====

Entries and their measured IC50 follow.
- TARGET OF ASSAY: Recombinant human HDAC6 (Homo sapiens)
- Construct: full length, MW=159 kDa; GST (N); host or cells: Sf9 insect cells (baculovirus)
- Sequence (Q9UBN7 1-1215): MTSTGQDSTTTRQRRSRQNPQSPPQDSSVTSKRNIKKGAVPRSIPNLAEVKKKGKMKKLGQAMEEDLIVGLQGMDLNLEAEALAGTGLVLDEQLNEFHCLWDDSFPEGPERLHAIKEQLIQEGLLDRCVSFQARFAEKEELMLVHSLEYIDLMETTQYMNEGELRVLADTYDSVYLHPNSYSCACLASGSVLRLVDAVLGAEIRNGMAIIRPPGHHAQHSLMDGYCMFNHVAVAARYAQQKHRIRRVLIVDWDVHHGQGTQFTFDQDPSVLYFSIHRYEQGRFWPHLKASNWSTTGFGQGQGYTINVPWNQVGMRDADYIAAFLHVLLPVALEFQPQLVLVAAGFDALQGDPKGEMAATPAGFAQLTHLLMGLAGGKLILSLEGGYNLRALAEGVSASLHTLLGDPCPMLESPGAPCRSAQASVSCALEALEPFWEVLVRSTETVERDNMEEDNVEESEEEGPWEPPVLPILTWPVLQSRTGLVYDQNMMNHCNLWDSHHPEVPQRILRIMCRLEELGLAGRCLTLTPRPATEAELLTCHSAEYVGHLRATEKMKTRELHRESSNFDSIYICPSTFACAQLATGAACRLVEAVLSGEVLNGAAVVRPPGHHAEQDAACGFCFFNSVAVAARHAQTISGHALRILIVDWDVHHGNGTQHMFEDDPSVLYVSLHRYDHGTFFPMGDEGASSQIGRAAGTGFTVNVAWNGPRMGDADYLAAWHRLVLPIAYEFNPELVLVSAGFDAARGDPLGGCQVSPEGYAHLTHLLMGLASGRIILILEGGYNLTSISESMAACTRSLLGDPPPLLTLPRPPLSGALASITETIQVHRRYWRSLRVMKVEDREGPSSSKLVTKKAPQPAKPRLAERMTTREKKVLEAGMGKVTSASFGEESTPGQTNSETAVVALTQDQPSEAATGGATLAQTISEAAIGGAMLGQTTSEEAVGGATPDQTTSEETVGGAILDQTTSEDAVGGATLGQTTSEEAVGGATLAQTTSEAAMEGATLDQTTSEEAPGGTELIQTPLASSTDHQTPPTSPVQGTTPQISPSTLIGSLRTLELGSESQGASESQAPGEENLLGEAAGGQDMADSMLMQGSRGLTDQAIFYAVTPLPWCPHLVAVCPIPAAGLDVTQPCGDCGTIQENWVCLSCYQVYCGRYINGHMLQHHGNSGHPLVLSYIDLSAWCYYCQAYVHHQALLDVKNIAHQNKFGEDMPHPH
- METHOD NOTES: HDAC6 biochemical assay, AMC-labeled peptide substrate
- PARTICULARS: HDAC6; read-out: HDAC Isoform IC50 (nM) 6

In the examples that follow, each entry is paired with its recorded IC50.
FC(F)(F)c1cnnc(N(Cc2ccc(-c3noc(C(F)(F)F)n3)s2)c2ccncc2)c1 [Example EJ]	≤ 10000 nM
FC(F)(F)c1nc(-c2ccc(CN(c3cnccn3)c3cc(CN4CCOCC4)ccn3)s2)no1 [Example GI]	≤ 1000 nM
FC(F)(F)c1nc(-c2ccc(CN(c3cnccn3)c3cc(-c4ccccn4)cnn3)s2)no1 [Example GM]	≤ 500 nM
Cc1cnc(N(Cc2ccc(-c3noc(C(F)(F)F)n3)s2)c2cnccn2)nc1 [Example AW]	≤ 10000 nM

# COc1cnc(N(Cc2ccc(-c3noc(C(F)(F)F)n3)s2)c2cc(C(F)(F)F)cnn2)cn1 [Example EP] with Recombinant human HDAC6 (Homo sapiens): IC50 is ≤ 10000 nM

# FC(F)(F)c1nc(-c2ccc(CN(c3cnccn3)c3nccc4nccnc34)s2)no1 [Example AL] with Recombinant human HDAC6 (Homo sapiens): IC50 is ≤ 10000 nM

# CN(C(=O)c1cnnc(N(Cc2ccc(-c3noc(C(F)(F)F)n3)s2)c2cnccn2)c1)S(C)(=O)=O [Example GE] with Recombinant human HDAC6 (Homo sapiens): IC50 is ≤ 500 nM

# Cc1ncc(N(Cc2ccc(-c3noc(C(F)(F)F)n3)s2)c2cnccn2)nc1C [Example BT] with Recombinant human HDAC6 (Homo sapiens): IC50 is ≤ 10000 nM

# Cc1cnc(N(Cc2ccc(-c3noc(C(F)(F)F)n3)s2)c2cnccn2)c(C)n1 [Example BV] with Recombinant human HDAC6 (Homo sapiens): IC50 is ≤ 10000 nM

# FC(F)(F)c1cnc(N(Cc2ccc(-c3noc(C(F)(F)F)n3)s2)c2cnccn2)cn1 [Example BK] with Recombinant human HDAC6 (Homo sapiens): IC50 is ≤ 10000 nM

# COc1ccc2ncnc(N(Cc3ccc(-c4noc(C(F)(F)F)n4)s3)c3cnccn3)c2c1 [Example CN] with Recombinant human HDAC6 (Homo sapiens): IC50 is ≤ 1000 nM
